Hello, the source for this data is ChEMBL document CHEMBL1961873, in case you need it.

Task for the reader: assign each of the following compounds its reported inhibition.
SYSTEM: RAF proto-oncogene serine/threonine-protein kinase (Homo sapiens)
ASSAY_CONDITIONS: at 0.1 µM
Enter your answer as a number in %; do not include the unit.

Prompt line: Item: C/C(Nc1ccc(S(N)(=O)=O)cc1)=C1/C(=O)Nc2ccccc21 Test system: RAF proto-oncogene serine/threonine-protein kinase (Homo sapiens) Read-out: inhibition Value: ?
Response line: -5.23

Prompt line: Item: Cc1nnc(-c2ccc(C)c(-c3ccc(C(=O)NCc4ccc(Cl)cc4)cc3)c2)o1 Test system: RAF proto-oncogene serine/threonine-protein kinase (Homo sapiens) Read-out: inhibition Value: ?
Response line: 8.41

Prompt line: Item: NC(=O)c1ccc(Oc2nccc(-c3c(-c4ccc(F)cc4)ncn3C3CCNCC3)n2)cc1 Test system: RAF proto-oncogene serine/threonine-protein kinase (Homo sapiens) Read-out: inhibition Value: ?;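 note: values are mean CRAF kinase inhibition from profiling of the GSK Published Kinase Inhibitor Set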
Response line: 3.18
